System: IDH2 R172K (Homo sapiens, UniProt P48735, R172K)
Sequence (P48735 40-452 R172K): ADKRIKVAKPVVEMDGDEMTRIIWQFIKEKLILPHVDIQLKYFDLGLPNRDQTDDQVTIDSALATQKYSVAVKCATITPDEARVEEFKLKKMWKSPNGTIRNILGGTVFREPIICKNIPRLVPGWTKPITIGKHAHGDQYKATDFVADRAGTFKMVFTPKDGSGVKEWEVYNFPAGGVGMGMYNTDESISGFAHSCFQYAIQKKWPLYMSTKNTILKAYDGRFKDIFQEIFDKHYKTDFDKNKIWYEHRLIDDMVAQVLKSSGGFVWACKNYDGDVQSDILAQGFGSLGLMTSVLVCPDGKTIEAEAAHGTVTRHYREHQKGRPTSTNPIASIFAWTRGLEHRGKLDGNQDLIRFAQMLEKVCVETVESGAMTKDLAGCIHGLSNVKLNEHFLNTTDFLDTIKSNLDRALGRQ
Assay Remarks: IDH2 R172K enzymatic assay (NADPH cofactor depletion, diaphorase/resazurin readout)
Assay Context: read-out: Enz R172K
Value Kind: IC50

Molecule: CC1(Nc2nc(Nc3ccnc(C(F)(F)F)c3)nc(-c3cccc(C(F)(F)F)n3)n2)CC1 [Compound 533]
Value Reported: < 100 nM
--
Molecule: Fc1ccc(Nc2nc(NC3CCC3)nc(-c3ccccn3)n2)cn1 [Compound 345]
Value Reported: 100 to 1000 nM

Exam item: Tell me the measured IC50 of Cc1cc(Nc2nc(NC(=O)C(C)(C)C)nc(-c3ccccc3)n2)ccn1 [Compound 350] , please.
Marked response: 1000 to 10000 nM

Exam item: Tell me the measured IC50 of CC(C)Nc1nc(Nc2ccccc2Cl)nc(-c2ccccc2)n1 [Compound 162] , please.
Marked response: 1000 to 10000 nM

Exam item: Tell me the measured IC50 of CC(C)Nc1nc(Nc2cc(F)cc(F)c2)nc(-c2nc(O)ccc2F)n1 [Compound 469] , please.
Marked response: < 100 nM

Exam item: Tell me the measured IC50 of CC(C)Nc1nc(Nc2cccc(S(=O)(=O)NCC(F)(F)F)c2)nc(-c2cccc(C(F)(F)F)n2)n1 [Compound 519] , please.
Marked response: 100 to 1000 nM

Exam item: Tell me the measured IC50 of CC(C)Nc1nc(Nc2ccccc2)nc(-c2ncccc2Cl)n1 [Compound 230] , please.
Marked response: 100 to 1000 nM

Exam item: Tell me the measured IC50 of CC1(Nc2nc(Nc3ccnc(C(F)(F)F)c3)nc(-c3cccc(N)n3)n2)CC1 [Compound 692] , please.
Marked response: < 100 nM

Exam item: Tell me the measured IC50 of FC(F)(F)c1cc(Nc2nc(NCC3CCOC3)nc(-c3cccc(C(F)(F)F)n3)n2)ccn1 (centres unmarked) [Compound 547] , please.
Marked response: < 100 nM

Exam item: Tell me the measured IC50 of CC(C)Nc1nc(Nc2cncc(F)c2)nc(-c2ncccc2F)n1 [Compound 456] , please.
Marked response: 100 to 1000 nM

Exam item: Tell me the measured IC50 of CC(C)Nc1nc(Nc2ccnc(C(F)(F)F)c2)nc(-c2cccc(C(N)=O)c2)n1 [Compound 651] , please.
Marked response: 100 to 1000 nM

###

The entries below are paired with their reported IC50.
System: U87MG pLVX-IDH2 R140Q-neo cells
Assay Remarks: U87MG pLVX-IDH2 R140Q-neo cell based assay, 2-HG in media by LC-MS at 48 hours
Assay Context: Homo sapiens, U-87 MG

The cases that follow already have their IC50 on record.
Compound: Cc1cc(Nc2nc(NC(=O)C(C)(C)C)nc(-c3ccccc3)n2)ccn1 [Compound 350]
System: U87MG pLVX-IDH2 R140Q-neo cells
IC50: 100 to 1000 nM
//
Compound: CC(C)Nc1nc(Nc2cc(F)cc(S(C)(=O)=O)c2)nc(-c2cccc(C(C)(F)F)n2)n1 [Compound 613]
System: U87MG pLVX-IDH2 R140Q-neo cells
IC50: < 100 nM
//
Compound: Fc1cc(Nc2nc(NC3COC3)nc(-c3cccc(C(F)(F)F)n3)n2)ccn1 [Compound 377]
System: U87MG pLVX-IDH2 R140Q-neo cells
IC50: < 100 nM

Exam item: // fetch U87MG pLVX-IDH2 R140Q-neo cells IC50 for COCC(C)Nc1nc(Nc2ccncc2)nc(-c2ccccc2)n1 (stereo not shown) [Compound 272]
Marked response: 100 to 1000 nM
